Assay: chemical genetic growth profiling, strain panel (AID 1159580);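 also: tested at 20 µM; growth read once vehicle control cultures reached saturation at 30 °C; lower values mean less growth of the strain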
Settings: S. cerevisiae deletion strains, growth OD, locus YHR013C, strain ard1
The whole screen tested about 5,500 compounds, of which about 2,000 (36%) were called active. Not shown: some 18% with an inconclusive outcome. Rule as the data show it: active = normalized growth mostly below about 0.91 (no sharp cut-off); inconclusive = no clear call, values can overlap the other calls; inactive = mostly above about 0.92. Some of the results follow.
Please reply with one of these outcomes: active, inactive

Worked examples, 2 compounds total:
1. CC(C)CCCC(C)[C@H]1CCC2C3CC=C4C[C@@H](O)CC[C@]4(C)C3CC[C@@]21C (stereo partly specified): inactive
2. CCN(CC)CCOC(=O)C1(C2CCCCC2)CCCCC1: inactive

Exam item: Please let me know the test result on file for CC(C)CCCC(C)C1CCC2C3=CC[C@H]4C[C@@H](O)CC[C@]4(C)C3CC[C@@]21C (stereo partly specified) .
Marked response: inactive

Exam item: Please let me know the test result on file for CN(C)CCCN1c2ccccc2Sc2ccc(Cl)cc21 .
Marked response: active

Exam item: Please let me know the test result on file for CCN(CC)CCOCCOC(=O)C1(c2ccccc2)CCCC1 .
Marked response: inactive

Exam item: Please let me know the test result on file for CC(C)CCCC(C)[C@H]1CCC2C3CC=C4CC(=O)CC[C@]4(C)C3CC[C@@]21C (stereo partly specified) .
Marked response: inactive
